We begin with a simple list: items and their reported log10(IC50).
molecular target: Cytochrome P450 11B2, mitochondrial (Homo sapiens, UniProt P19099); experiment: Inhibition of human CYP11B2 expressed in human renal leiomyoblastoma cells harboring FDXR/FDX using 1-deoxycorticosterone as substrate by HTRF assay; type: cell-based
Sequence (P19099 whole entry): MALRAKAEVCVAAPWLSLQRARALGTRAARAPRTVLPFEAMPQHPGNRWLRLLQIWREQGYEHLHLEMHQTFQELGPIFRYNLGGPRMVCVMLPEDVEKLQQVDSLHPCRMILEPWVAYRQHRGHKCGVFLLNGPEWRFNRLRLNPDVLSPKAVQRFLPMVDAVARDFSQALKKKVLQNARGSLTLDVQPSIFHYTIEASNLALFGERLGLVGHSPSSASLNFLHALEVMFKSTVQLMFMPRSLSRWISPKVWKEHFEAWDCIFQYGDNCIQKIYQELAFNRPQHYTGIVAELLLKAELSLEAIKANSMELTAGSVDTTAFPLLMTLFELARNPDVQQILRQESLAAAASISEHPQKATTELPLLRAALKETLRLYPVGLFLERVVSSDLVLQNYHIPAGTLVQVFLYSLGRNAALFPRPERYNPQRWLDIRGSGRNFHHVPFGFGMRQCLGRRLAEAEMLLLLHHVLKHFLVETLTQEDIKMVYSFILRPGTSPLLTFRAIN
test_readout: log10(IC50) (log10 of the value in nM)

molecule: CC(=O)N[C@H]1CCCc2c1cncc2N1Cc2cc(Cl)ccc2C1=O
endpoint_result: 3.71
--
molecule: CC1(C)c2cc(Cl)ccc2C(=O)N1c1cncc(N2CCN(S(C)(=O)=O)CC2)c1
endpoint_result: 0.30
--
molecule: CC[C@H]1c2cc(Cl)ccc2C(=O)N1c1cncc2c1CCC[C@H]2NC(C)=O
endpoint_result: 1.99
--
molecule: O=C1c2cc(F)c(Cl)cc2CCN1c1cccnc1
endpoint_result: 2.02
--
molecule: Cc1cc(Cl)ccc1C(=O)Nc1cccnc1
endpoint_result: 2.44
--
molecule: CCC(=O)N[C@@H]1CCCc2c1cncc2N1CCc2cc(Cl)ccc2C1=O
endpoint_result: 2.08
--
molecule: CCS(=O)(=O)N[C@@H]1CCCc2c1cncc2N1Cc2cc(Cl)ccc2C1=O
endpoint_result: 1.60
--
molecule: CCC(=O)N[C@@H]1CCCc2c1cncc2N1C(=O)c2ccc(Cl)cc2[C@@H]1CC
endpoint_result: 1.08
--
molecule: O=C1c2ccc(Cl)cc2C2(CC2)N1c1cccnc1
endpoint_result: 2.08
--
molecule: CC1(C)c2cc(Cl)ccc2C(=O)N1c1cccnc1
endpoint_result: 2.03
--
molecule: CC1c2cc(Cl)ccc2C(=O)N1c1cccnc1 (configuration not stated)
endpoint_result: 2.09
--
molecule: O=C(Nc1cccnc1)c1ccc(Cl)cc1
endpoint_result: 2.62
--
molecule: CCS(=O)(=O)N1CCC(c2cncc(N3C(=O)c4ccc(Cl)cc4C3(C)C)c2)CC1
endpoint_result: 0.48
--
molecule: N#Cc1ccc(C(=O)Nc2cccnc2)cc1
endpoint_result: 2.66
--
molecule: Cn1cc(C(=O)N2CC(Oc3cncc(N4C(=O)c5ccc(Cl)cc5C4(C)C)c3)C2)cn1
endpoint_result: -0.30
--
molecule: Cc1ccncc1C(=O)N1CC2(C1)CN(c1cncc(N3C(=O)c4ccc(Cl)cc4C3(C)C)c1)C2
endpoint_result: 1.15
--
molecule: CC(=O)N[C@@H]1CCCc2c1cncc2N1C(=O)c2ccc(Cl)cc2[C@H]1C
endpoint_result: 2.11
--
molecule: CS(=O)(=O)N[C@@H]1CCCc2c1cncc2N1CCc2cc(Cl)ccc2C1=O
endpoint_result: 1.88
--
molecule: CC(=O)N1CC2(C1)CN(c1cncc(N3C(=O)c4ccc(Cl)cc4C3(C)C)c1)C2
endpoint_result: 1.36
--
molecule: CC(=O)N1CC[C@@H](Oc2cncc(N3C(=O)c4ccc(Cl)cc4C3(C)C)c2)C1
endpoint_result: 1.04
--
molecule: CC1CN(c2cccnc2)C(=O)c2ccc(Cl)cc21 (configuration not stated)
endpoint_result: 2.21
--
molecule: O=C1c2ccc(Cl)cc2CN1c1cccnc1
endpoint_result: 2.25
--
molecule: CC[C@@H]1c2cc(Cl)ccc2C(=O)N1c1cncc2c1CCC[C@H]2NC(C)=O
endpoint_result: 0.85
--
molecule: CC(=O)N[C@@H]1CCCc2c1cncc2N1C(=O)c2ccc(Cl)cc2[C@@H]1C
endpoint_result: 0.60
--
molecule: CCC1c2cc(Cl)ccc2C(=O)N1c1cccnc1 (configuration not stated)
endpoint_result: 2.08
--
molecule: CCS(=O)(=O)N1CC(Oc2cncc(N3C(=O)c4ccc(Cl)cc4C3(C)C)c2)C1
endpoint_result: 0.60
--
molecule: CCC(=O)N[C@@H]1CCCc2c1cncc2N1Cc2cc(Cl)ccc2C1=O
endpoint_result: 1.45
--
molecule: N#Cc1ccc2c(c1)CN(c1cccnc1)C2=O
endpoint_result: 2.37
--
molecule: CCS(=O)(=O)NCc1cncc(N2C(=O)c3ccc(Cl)cc3C2(C)C)c1
endpoint_result: 1.96
--
molecule: CC(=O)N1CCC(Oc2cncc(N3C(=O)c4ccc(Cl)cc4C3(C)C)c2)CC1
endpoint_result: 0.60
--
molecule: CC(=O)N[C@@H]1CCCc2c1cncc2N1Cc2cc(Cl)ccc2C1=O
endpoint_result: 1.64
--
molecule: CC(=O)N[C@@H]1CCCc2c1cncc2N1C(=O)c2ccc(Cl)cc2[C@@H]1C1CC1
endpoint_result: 2.55
--
molecule: CC1(C)CN(c2cccnc2)C(=O)c2ccc(Cl)cc21
endpoint_result: 3.19
--
molecule: CC(=O)N1CCC(c2cncc(N3C(=O)c4ccc(Cl)cc4C3(C)C)c2)CC1
endpoint_result: 0.70
--
molecule: CC1Cc2cc(Cl)ccc2C(=O)N1c1cccnc1 (configuration not stated)
endpoint_result: 2.88
--
molecule: Cn1cc(C(=O)N2CC3(C2)CN(c2cncc(N4C(=O)c5ccc(Cl)cc5C4(C)C)c2)C3)cn1
endpoint_result: 0.30
--
molecule: O=C1c2ccc(Cl)cc2CCN1c1cccnc1
endpoint_result: 1.79
--
molecule: CCC(=O)N[C@@H]1CCCc2c1cncc2N1C(=O)c2ccc(Cl)cc2[C@H]1C
endpoint_result: 1.82
--
molecule: C[C@@H](NS(C)(=O)=O)c1cncc(N2C(=O)c3ccc(Cl)cc3C2(C)C)c1
endpoint_result: 0.90
--
molecule: O=C(Nc1cccnc1)c1ccc(Cl)cc1F
endpoint_result: 2.47
--
molecule: CC(=O)N[C@@H]1CCCc2c1cncc2N1CCc2cc(Cl)ccc2C1=O
endpoint_result: 1.73
--
molecule: O=C(Nc1cccnc1)c1ccccc1Cl
endpoint_result: 2.99
--
molecule: O=C1c2ccc(Cl)cc2C(C2CC2)N1c1cccnc1 (configuration not stated)
endpoint_result: 2.21
--
molecule: CC1(C)c2cc(Cl)ccc2C(=O)N1c1cncc(OC2CN(C(=O)c3ncccc3Cl)C2)c1
endpoint_result: 0.70
